# study-target: human recombinant CB2 (Homo sapiens, UniProt P34972)
# Construct: purchased Perkin-Elmer; host or cells: HEK293
# Sequence (P34972 whole entry): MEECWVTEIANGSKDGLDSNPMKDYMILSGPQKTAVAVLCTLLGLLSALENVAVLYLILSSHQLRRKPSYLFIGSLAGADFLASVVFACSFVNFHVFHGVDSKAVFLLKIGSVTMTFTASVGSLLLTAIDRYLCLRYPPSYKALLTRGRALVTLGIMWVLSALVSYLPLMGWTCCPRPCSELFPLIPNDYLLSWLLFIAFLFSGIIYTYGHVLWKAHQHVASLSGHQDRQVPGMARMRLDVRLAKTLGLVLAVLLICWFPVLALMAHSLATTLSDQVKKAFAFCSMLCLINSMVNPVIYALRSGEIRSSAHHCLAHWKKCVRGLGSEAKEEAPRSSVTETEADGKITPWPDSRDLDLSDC
# run-description: CB2R radioligand binding on membranes from HEK293 cells over-expressing CB2
assay-readout: EC50

Exam item: Sample COc1cc(C2Oc3ccc(C4CC(=O)c5c(O)cc(O)cc5O4)cc3OC2CO)ccc1O (stereo not shown) — what was its EC50?
Marked response: > 25 µM
